# subject-of-test: D(3) dopamine receptor (Homo sapiens, UniProt P35462)
# Sequence (P35462 whole entry): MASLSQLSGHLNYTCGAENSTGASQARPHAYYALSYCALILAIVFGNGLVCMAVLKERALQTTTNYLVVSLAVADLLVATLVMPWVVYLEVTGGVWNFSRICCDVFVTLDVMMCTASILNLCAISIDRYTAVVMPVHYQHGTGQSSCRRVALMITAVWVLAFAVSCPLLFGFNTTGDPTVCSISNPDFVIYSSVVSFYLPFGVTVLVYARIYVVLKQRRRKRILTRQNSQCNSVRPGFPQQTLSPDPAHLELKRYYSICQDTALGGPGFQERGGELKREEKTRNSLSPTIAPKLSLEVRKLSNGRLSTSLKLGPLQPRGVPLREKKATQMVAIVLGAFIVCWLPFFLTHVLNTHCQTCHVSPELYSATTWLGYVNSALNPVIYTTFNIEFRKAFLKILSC
property-measured: pKi
Answers are plain numbers, as −log10 of the molar value.

- smiles-repr: "O=S(=O)(c1ccccc1F)n1cc(C2=CCNCC2)c2ccccc21"
  pKi: 6.13

Now for the compound whose pKi we want.
Lookup: # lookup: pKi of `O=S(=O)(c1ccccc1Cl)n1cc(C2=CCNCC2)c2ccccc21`
Found: 6.20

----------
# subject-of-test: UniProtKB P50406
Answer each item with its documented Ki.
Give bare numbers, in µM.

Examples with their reported Ki follow.
- smiles-repr: "O=S(=O)(c1ccc(F)cc1)n1cc(C2=CCNCC2)c2cc(F)ccc21"
  Ki (µM): 0.003
- smiles-repr: "CCCCS(=O)(=O)n1cc(C2=CCNCC2)c2ccccc21"
  Ki (µM): 0.077
- smiles-repr: "O=S(=O)(c1ccccc1)n1cc(C2=CCNCC2)c2ccccc21"
  Ki (µM): 0.002

Would you be so kind as to report Ki for each listed record?
1. Nc1ccc(S(=O)(=O)n2cc(C3=CCNCC3)c3ccc([N+](=O)[O-])cc32)cc1
2. CN1CC=C(c2cn(C(=O)c3ccccc3)c3ccccc23)CC1
3. O=S(=O)(c1ccccc1)n1cc(C2CCNCC2)c2ccccc21

Found:
[0.031, 0.099, 0.012]

----------
# subject-of-test: 5-hydroxytryptamine receptor 6 (Homo sapiens)
# Sequence (P50406 whole entry): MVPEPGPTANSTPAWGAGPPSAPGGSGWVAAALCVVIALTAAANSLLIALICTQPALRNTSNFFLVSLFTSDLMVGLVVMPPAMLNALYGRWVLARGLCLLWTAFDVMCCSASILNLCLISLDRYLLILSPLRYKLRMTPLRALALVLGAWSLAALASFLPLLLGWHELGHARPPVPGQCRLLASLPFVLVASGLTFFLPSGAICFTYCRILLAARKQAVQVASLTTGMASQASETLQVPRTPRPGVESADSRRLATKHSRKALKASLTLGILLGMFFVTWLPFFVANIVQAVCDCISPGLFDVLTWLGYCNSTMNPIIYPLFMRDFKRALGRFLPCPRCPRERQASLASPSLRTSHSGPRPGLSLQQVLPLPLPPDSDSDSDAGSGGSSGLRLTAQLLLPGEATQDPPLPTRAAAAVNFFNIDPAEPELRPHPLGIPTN
# test-description: Inhibitory concentration against 5-HT stimulated cAMP production in HeLa cells stably transfected with human 5-HT6 receptor
Answer each item with its documented pIC50.
Numbers only, as −log10 of the molar value.

// below: answered compounds
- smiles-repr: "Nc1ccc(S(=O)(=O)n2cc(C3=CCNCC3)c3cc4c(cc32)OCO4)cc1"
  subject-of-test: "5-hydroxytryptamine receptor 6 (Homo sapiens)"
  pIC50: 8.77
- smiles-repr: "Nc1ccc(S(=O)(=O)n2cc(C3=CCNCC3)c3cc(Br)ccc32)cc1"
  subject-of-test: "5-hydroxytryptamine receptor 6 (Homo sapiens)"
  pIC50: 7.47
- smiles-repr: "COc1ccc2c(c1)c(C1=CCNCC1)cn2S(=O)(=O)c1ccc(N)cc1"
  subject-of-test: "5-hydroxytryptamine receptor 6 (Homo sapiens)"
  pIC50: 9.40
- smiles-repr: "O=S(=O)(c1ccccc1)n1cc(C2CCNCC2)c2ccccc21"
  subject-of-test: "5-hydroxytryptamine receptor 6 (Homo sapiens)"
  pIC50: 7.71
- smiles-repr: "O=S(=O)(c1ccccc1Cl)n1cc(C2=CCNCC2)c2ccccc21"
  subject-of-test: "5-hydroxytryptamine receptor 6 (Homo sapiens)"
  pIC50: 8.06

// for each compound below, give its pIC50
1. O=S(=O)(c1cccc2ccccc12)n1cc(C2=CCNCC2)c2cc(F)ccc21
2. Nc1ccc(S(=O)(=O)n2cc(C3CCNCC3)c3ccc(Cl)cc32)cc1
3. CN1CC=C(c2cn(S(=O)(=O)c3ccc(F)cc3)c3ccccc23)CC1
4. Nc1ccc(S(=O)(=O)n2cc(C3=CCNCC3)c3ccccc32)cc1
5. CN1CC=C(c2cn(S(=O)(=O)c3ccccc3F)c3ccccc23)CC1
6. O=S(=O)(c1ccccc1F)n1cc(C2=CCNCC2)c2ccccc21
7. O=S(=O)(c1nccc2sncc12)n1cc(C2=CCNCC2)c2ccccc21

Found:
8.05
8.07
7.37
9.10
8.41
8.57
6.77

----------
# subject-of-test: 5-hydroxytryptamine receptor 2A (Homo sapiens, UniProt P28223)
# Sequence (P28223 whole entry): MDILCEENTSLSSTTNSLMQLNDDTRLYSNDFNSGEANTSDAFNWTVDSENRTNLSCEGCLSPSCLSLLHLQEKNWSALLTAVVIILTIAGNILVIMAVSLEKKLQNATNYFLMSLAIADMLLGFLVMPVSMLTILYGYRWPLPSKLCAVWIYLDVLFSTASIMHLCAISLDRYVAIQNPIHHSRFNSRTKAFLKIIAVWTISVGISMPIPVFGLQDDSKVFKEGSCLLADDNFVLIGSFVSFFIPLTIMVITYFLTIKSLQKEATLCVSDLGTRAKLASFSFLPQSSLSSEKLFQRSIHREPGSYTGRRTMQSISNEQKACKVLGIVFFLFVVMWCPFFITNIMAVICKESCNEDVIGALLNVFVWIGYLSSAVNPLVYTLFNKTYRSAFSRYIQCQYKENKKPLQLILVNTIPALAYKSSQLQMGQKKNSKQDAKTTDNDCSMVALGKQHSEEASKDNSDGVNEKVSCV
# test-description: Binding affinity against human cloned 5-hydroxytryptamine 2A receptor stably expressed in CHO cells using [125I]DOI
# Type: cell-based
property-measured: Ki (nM)
Give bare numbers, in nM.

Lookup: Suppose we examine the compound `O=S(=O)(c1ccccc1Cl)n1cc(C2=CCNCC2)c2ccccc21` ; what Ki value has been reported?
Found: 599

----------
# subject-of-test: 5-hydroxytryptamine receptor 1B (Homo sapiens)
# test-description: Inhibition of [3H]-5-HT binding to human cloned 5-hydroxytryptamine 1B receptor stably expressed in CHO cells at 1 uM
# Type: cell-based
Record form. Attribute: inhibition. Fill in for each entry.
Numbers only, in %.

Before answering, review these 4 worked examples.
- smiles-repr: "Nc1ccc(S(=O)(=O)n2cc(C3=CCNCC3)c3ccccc32)cc1"
  subject-of-test: "5-hydroxytryptamine receptor 1B (Homo sapiens)"
  inhibition [%]: 33
- smiles-repr: "Nc1ccc(S(=O)(=O)n2cc(C3CCNCC3)c3ccc(Cl)cc32)cc1"
  subject-of-test: "5-hydroxytryptamine receptor 1B (Homo sapiens)"
  inhibition [%]: 30
- smiles-repr: "O=S(=O)(c1ccccc1F)n1cc(C2=CCNCC2)c2ccccc21"
  subject-of-test: "5-hydroxytryptamine receptor 1B (Homo sapiens)"
  inhibition [%]: 11
- smiles-repr: "O=S(=O)(c1ccccc1Cl)n1cc(C2=CCNCC2)c2ccccc21"
  subject-of-test: "5-hydroxytryptamine receptor 1B (Homo sapiens)"
  inhibition [%]: 12

Consider the additional molecule presented here.
Lookup: So what's the measured inhibition for this one? `COc1ccc2c(c1)c(C1=CCNCC1)cn2S(=O)(=O)c1ccc(N)cc1`
Found: 27

----------
// endpoint Ki / system 5-hydroxytryptamine receptor 6 (Homo sapiens)
Give bare numbers, in nM.

- smiles-repr: "O=S(=O)(c1ccc2ccccc2c1)n1cc(C2=CCNCC2)c2ccccc21"
  Ki / nM: 27
- smiles-repr: "CN1CC=C(c2cn(S(=O)(=O)c3ccccc3Cl)c3ccccc23)CC1"
  Ki / nM: 10
- smiles-repr: "Nc1ccc(S(=O)(=O)n2cc(C3=CCNCC3)c3cc(OCc4ccccc4)ccc32)cc1"
  Ki / nM: 50

Now consider a different compound.
Lookup: Give its Ki value. Item: `CN1CC=C(c2cn(S(=O)(=O)c3ccccc3F)c3ccccc23)CC1`
Found: 10

----------
# subject-of-test: 5-hydroxytryptamine receptor 1D (Homo sapiens)
# test-description: Inhibition of [3H]5-HT binding to human cloned 5-hydroxytryptamine 1D receptor stably expressed in CHO cells at 1 uM
# Assay type: cell-based
property-measured: inhibition (%)
One number for each entry, in %.

// solved cases for inhibition follow
- smiles-repr: "O=S(=O)(c1ccccc1F)n1cc(C2=CCNCC2)c2ccccc21"
  subject-of-test: "5-hydroxytryptamine receptor 1D (Homo sapiens)"
  property-measured: "inhibition"
  measurement-unit: "%"
  readout-value: 9
- smiles-repr: "COc1ccc2c(c1)c(C1=CCNCC1)cn2S(=O)(=O)c1ccc(N)cc1"
  subject-of-test: "5-hydroxytryptamine receptor 1D (Homo sapiens)"
  property-measured: "inhibition"
  measurement-unit: "%"
  readout-value: 32
- smiles-repr: "O=S(=O)(c1ccccc1Cl)n1cc(C2=CCNCC2)c2ccccc21"
  subject-of-test: "5-hydroxytryptamine receptor 1D (Homo sapiens)"
  property-measured: "inhibition"
  measurement-unit: "%"
  readout-value: 6

As a next step, examine the molecule that follows.
Lookup: Any idea what inhibition was measured for `Nc1ccc(S(=O)(=O)n2cc(C3CCNCC3)c3ccc(Cl)cc32)cc1` ?
Found: 10

----------
I'd be grateful if you could share measured pKi for these entries.
# subject-of-test: 5-hydroxytryptamine receptor 6 (Homo sapiens)
Numbers only, as −log10 of the molar value.

- smiles-repr: "O=S(=O)(c1ccccc1Cl)n1cc(C2=CCNCC2)c2ccccc21"
  pKi: 9.40
- smiles-repr: "O=S(=O)(c1ccccc1)n1cc(C2=CCNCC2)c2cc(F)ccc21"
  pKi: 8.62

Okay, here is my list. What is pKi for each of these?
1. Nc1ccc(S(=O)(=O)n2cc(C3CCNCC3)c3ccc(Cl)cc32)cc1
2. COc1ccc2c(c1)c(C1=CCNCC1)cn2S(=O)(=O)c1ccc2ccccc2c1
3. O=S(=O)(c1ccc(Cl)s1)n1cc(C2=CCNCC2)c2ccccc21
4. CN1CC=C(c2cn(S(=O)(=O)c3cccc(Cl)c3)c3ccccc23)CC1
5. O=S(=O)(c1ccc(C(F)(F)F)cc1)n1cc(C2=CCNCC2)c2ccccc21

Found:
8.52
7.72
8.52
9.00
7.70

----------
# subject-of-test: D(2) dopamine receptor (Homo sapiens, UniProt P14416)
# Sequence (P14416 whole entry): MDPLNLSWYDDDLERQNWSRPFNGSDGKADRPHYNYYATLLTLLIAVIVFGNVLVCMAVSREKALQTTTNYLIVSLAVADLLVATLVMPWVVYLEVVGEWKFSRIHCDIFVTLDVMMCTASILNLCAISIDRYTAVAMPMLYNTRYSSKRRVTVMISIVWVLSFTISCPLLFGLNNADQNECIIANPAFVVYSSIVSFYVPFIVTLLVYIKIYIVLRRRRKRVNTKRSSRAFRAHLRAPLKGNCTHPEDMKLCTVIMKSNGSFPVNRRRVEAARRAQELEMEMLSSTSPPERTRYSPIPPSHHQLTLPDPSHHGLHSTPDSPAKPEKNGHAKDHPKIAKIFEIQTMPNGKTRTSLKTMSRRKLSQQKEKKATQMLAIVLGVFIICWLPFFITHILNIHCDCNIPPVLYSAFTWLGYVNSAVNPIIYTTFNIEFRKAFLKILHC
# test-description: Binding affinity against human cloned Dopamine receptor D2 stably expressed in CHO-K1 cells using [3H]spiperone
Give Ki for every item shown.

- smiles-repr: "O=S(=O)(c1ccccc1Cl)n1cc(C2=CCNCC2)c2ccccc21"
  Ki: "> 2000 nM"

Now look at this one.
Lookup: What value of Ki has been recorded for this entry: `O=S(=O)(c1ccccc1F)n1cc(C2=CCNCC2)c2ccccc21`
Found: > 2000 nM

----------
Recorded below: pKi, system 5-hydroxytryptamine receptor 6 (Homo sapiens).
Give bare numbers, as −log10 of the molar value.

Study these solved cases before continuing.
- smiles-repr: "Nc1ccc(S(=O)(=O)n2cc(C3=CCNCC3)c3cc([N+](=O)[O-])ccc32)cc1"
  subject-of-test: "5-hydroxytryptamine receptor 6 (Homo sapiens)"
  pKi: 7.54
- smiles-repr: "Nc1ccc(S(=O)(=O)n2cc(C3CCNCC3)c3cc(F)ccc32)cc1"
  subject-of-test: "5-hydroxytryptamine receptor 6 (Homo sapiens)"
  pKi: 8.70
- smiles-repr: "Nc1ccc(S(=O)(=O)n2cc(C3=CCNCC3)c3ccccc32)cc1"
  subject-of-test: "5-hydroxytryptamine receptor 6 (Homo sapiens)"
  pKi: 8.70

Hey, can you go through the list below and give me pKi for every item?
1. CN1CC=C(c2cn(C(=O)Nc3ccccc3)c3ccccc23)CC1
2. O=S(=O)(c1nccc2sncc12)n1cc(C2=CCNCC2)c2ccccc21
3. Nc1ccc(S(=O)(=O)n2cc(C3=CCNCC3)c3ccc(Cl)cc32)cc1
4. O=S(=O)(c1cccc2ccccc12)n1cc(C2=CCNCC2)c2cc(F)ccc21

Found:
1. 6.93
2. 8.30
3. 8.52
4. 8.40

Look up pKi for the entries below, preserving their order.
1. Nc1ccc(S(=O)(=O)n2cc(C3=CCNCC3)c3cc(F)ccc32)cc1
2. O=S(=O)(c1ccc(Cl)cc1)n1cc(C2=CCNCC2)c2cc(F)ccc21
3. Nc1ccc(S(=O)(=O)n2cc(C3=CCNCC3)c3cc4c(cc32)OCO4)cc1

Found:
9.00
7.85
9.00
